target: mutant TREK-1 channels (Homo sapiens, UniProt O95069, Q120A); assay: Whole-cell voltage clamp of mutant TREK-1 channels; settings: Q105A mutant
Sequence (O95069 1-411 isoform O95069-2 Q105A): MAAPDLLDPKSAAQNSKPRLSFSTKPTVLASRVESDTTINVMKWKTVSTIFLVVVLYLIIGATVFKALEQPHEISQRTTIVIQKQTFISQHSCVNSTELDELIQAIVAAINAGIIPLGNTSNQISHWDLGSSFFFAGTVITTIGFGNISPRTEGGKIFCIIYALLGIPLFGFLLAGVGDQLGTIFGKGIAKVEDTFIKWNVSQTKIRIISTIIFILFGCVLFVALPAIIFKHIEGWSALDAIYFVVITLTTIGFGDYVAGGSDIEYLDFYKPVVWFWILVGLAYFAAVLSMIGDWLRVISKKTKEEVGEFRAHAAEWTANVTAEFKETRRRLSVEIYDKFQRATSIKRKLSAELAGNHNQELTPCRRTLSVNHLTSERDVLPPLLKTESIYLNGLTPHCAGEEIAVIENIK

>  <Input smiles>
CS(=O)(=O)N(CC(=O)N1CCc2ccccc2C1)c1ccc(Cl)cc1

>  <IC50 / µM>
2.2

$$$$

* * *

Target: TRAAK (Homo sapiens, UniProt Q9NYG8)
Sequence (Q9NYG8 1-393): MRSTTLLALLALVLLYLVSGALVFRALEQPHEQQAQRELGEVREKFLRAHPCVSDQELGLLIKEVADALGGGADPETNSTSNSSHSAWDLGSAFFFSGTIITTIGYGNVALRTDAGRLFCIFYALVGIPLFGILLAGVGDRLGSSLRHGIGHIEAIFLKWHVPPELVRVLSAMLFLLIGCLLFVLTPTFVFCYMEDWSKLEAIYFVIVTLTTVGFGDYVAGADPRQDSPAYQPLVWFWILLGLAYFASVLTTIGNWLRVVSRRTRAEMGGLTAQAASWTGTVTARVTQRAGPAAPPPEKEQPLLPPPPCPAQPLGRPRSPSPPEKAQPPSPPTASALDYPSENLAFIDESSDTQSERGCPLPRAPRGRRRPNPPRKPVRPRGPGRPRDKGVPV
Experiment: Whole-cell voltage clamp of CHO cells expressing TRAAK
Settings: whole-cell, CHO cells, WT TRAAK, mean ± s.e.m

>  <Compound>
Cc1cc(NC(=O)c2cccs2)cc(-c2nc3ccccc3o2)c1O [TKN2]

>  <IC50, µM>
10.3

$$$$
>  <Compound>
O=C(CNc1ccc(Cl)cc1)N1CCc2ccccc2C1 [28NH]

>  <IC50, µM>
11.8

$$$$
>  <Compound>
COc1ccccc1C(=O)Nc1cc(C(C)C)ccc1O [TKN1]

>  <IC50, µM>
15.7

$$$$
>  <Compound>
CS(=O)(=O)N(CC(=O)N1CCc2ccccc2C1)c1ccc(Cl)cc1 [TKDC]

>  <IC50, µM>
65.9

$$$$

* * *

target: mutant TREK-1 channels (Homo sapiens, UniProt O95069, Q98A); experiment: Whole-cell voltage clamp of mutant TREK-1 channels; details: Q83A mutant
Sequence (O95069 1-411 isoform O95069-2 Q83A): as the sequence (O95069 1-411 isoform O95069-2 Q105A) above, with Q83A, A105Q counted along it
pIC50: −log10 of the molar value.

>  <Input smiles>
CS(=O)(=O)N(CC(=O)N1CCc2ccccc2C1)c1ccc(Cl)cc1

>  <pIC50>
5.62

$$$$
